# Tested On: UniProtKB O14744
# Sequence (O14744 whole entry): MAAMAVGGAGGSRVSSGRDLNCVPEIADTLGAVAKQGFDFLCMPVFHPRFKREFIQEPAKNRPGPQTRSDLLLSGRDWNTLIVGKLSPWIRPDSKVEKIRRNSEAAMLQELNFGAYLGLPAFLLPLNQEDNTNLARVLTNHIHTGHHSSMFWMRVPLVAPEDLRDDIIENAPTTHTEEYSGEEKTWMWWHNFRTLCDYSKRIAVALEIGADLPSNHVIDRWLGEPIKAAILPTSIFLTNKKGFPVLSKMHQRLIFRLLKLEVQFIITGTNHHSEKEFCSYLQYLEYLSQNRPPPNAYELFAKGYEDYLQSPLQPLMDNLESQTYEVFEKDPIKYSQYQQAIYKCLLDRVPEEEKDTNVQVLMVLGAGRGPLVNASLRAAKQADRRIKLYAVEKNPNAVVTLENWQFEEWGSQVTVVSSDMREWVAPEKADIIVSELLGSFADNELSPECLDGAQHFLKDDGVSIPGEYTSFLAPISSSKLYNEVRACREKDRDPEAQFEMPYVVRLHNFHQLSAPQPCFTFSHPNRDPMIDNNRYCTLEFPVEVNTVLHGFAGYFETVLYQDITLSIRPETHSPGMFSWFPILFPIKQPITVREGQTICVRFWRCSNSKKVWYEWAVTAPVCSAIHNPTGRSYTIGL
# Sequence (Q9BQA1 whole entry partner): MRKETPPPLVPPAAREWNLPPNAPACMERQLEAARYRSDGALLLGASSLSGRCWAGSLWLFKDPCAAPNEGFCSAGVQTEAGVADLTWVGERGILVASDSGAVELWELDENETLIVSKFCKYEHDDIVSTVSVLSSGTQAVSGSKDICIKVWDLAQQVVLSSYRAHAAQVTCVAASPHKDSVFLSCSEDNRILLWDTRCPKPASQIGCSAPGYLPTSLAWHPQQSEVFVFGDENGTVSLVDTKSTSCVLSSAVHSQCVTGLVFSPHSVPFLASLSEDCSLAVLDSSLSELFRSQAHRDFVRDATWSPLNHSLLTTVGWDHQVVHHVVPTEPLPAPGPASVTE
# Assay Protocol: Enzymatic inhibitory activity against PRMT5-MTA (AlphaScreen)
# Format: biochemical
# Cond: read-out: IC50
# Protocol: The AlphaScreen method was used to detect the enzymatic inhibitory activity of the compounds against PRMT5-MTA. 1 x Methyltransferase assay buffer IV (signalchem) was prepared as a solution for diluting each component for the enzymatic reaction. […] The signal values were detected for the well plate through the Alpha method using an Envision multifunctional microplate-reader, and the IC50 values for inhibition of the compounds on PRMT5/MET50 enzyme activity were calculated in Xlfit 5.0 software. […]
Endpoint Name: IC50

molecule="Cc1cc2cc(C(=O)N(Cc3ccc(C4CC4)cn3)N(C)c3ncccc3F)ccc2nc1N [Example 164]" tested_on="UniProtKB O14744" result="0.9 nM"
molecule="COc1cnc(N(C)N(Cc2ccc(C(F)(F)F)cn2)C(=O)c2ccc3nc(N)c(C)cc3c2)nc1 [Example 39]" tested_on="UniProtKB O14744" result="2.7 nM"
molecule="Cc1cc2nc(N)c3c(C)nn(C)c3c2cc1C(=O)N1CC(C)CN1c1ncccc1F (stereo not shown) [Example 509]" tested_on="UniProtKB O14744" result="4.3 nM"
molecule="Cc1cc2cc(C(=O)N(Cc3ccc(C(F)(F)F)nn3)N(C)c3ncccn3)ccc2nc1N [Example 124]" tested_on="UniProtKB O14744" result="5.4 nM"
molecule="Cc1cc2cc(C(=O)N(Cc3ccc(C(F)(F)F)cn3)N(C)c3ncccc3C(C)C)ccc2nc1N [Example 136]" tested_on="UniProtKB O14744" result="3.6 nM"
molecule="Cc1cc2cc(C(=O)N(Cc3ccc(-c4cccnc4)cn3)N(C)c3ncccn3)ccc2nc1N [Example 172]" tested_on="UniProtKB O14744" result="2.1 nM"
molecule="Cc1cc2cc(C(=O)N(Cc3ccc(-c4scnc4C#N)cn3)N(C)c3ncccn3)ccc2nc1N [Example 243]" tested_on="UniProtKB O14744" result="3.4 nM"
molecule="Cc1cc2cc(C(=O)N(Cc3ccc(-c4scnc4C)cn3)N(C)c3nccc4nccnc34)ccc2nc1N [Example 185]" tested_on="UniProtKB O14744" result="4.7 nM"
molecule="C=C1CN(C(=O)c2cc3c(cc2Cl)nc(N)c2cnn(C)c23)N(c2cccc(F)n2)C1 [Example 435]" tested_on="UniProtKB O14744" result="7.3 nM"
molecule="Cc1cc2cc(C(=O)N(Cc3ccc(C(F)(F)F)cn3)N(C)c3ncccc3F)ccc2nc1N [Example 5]" tested_on="UniProtKB O14744" result="1.5 nM"
molecule="CCc1cccnc1N(C)N(Cc1ccc(C(F)(F)F)cn1)C(=O)c1ccc2nc(N)c(C)cc2c1 [Example 134]" tested_on="UniProtKB O14744" result="2.3 nM"
molecule="Cc1cc2cc(C(=O)N(Cc3ccc(-c4cnn(CF)c4)cn3)N(C)c3ncccn3)ccc2nc1N [Example 233]" tested_on="UniProtKB O14744" result="4.4 nM"
molecule="Cc1cc2cc(C(=O)N(Cc3ccc(-c4scnc4C)cn3)N(c3nccc4nccnc34)C3CC3)ccc2nc1N [Example 165]" tested_on="UniProtKB O14744" result="3.3 nM"
molecule="Cc1cc2cc(C(=O)N(Cc3ncc(Br)cn3)N(C)c3ncccc3F)ccc2nc1N [Example 89]" tested_on="UniProtKB O14744" result="2 nM"
molecule="Cc1cc2nc(N)c3cnn(C)c3c2cc1C(=O)N1CCCN1c1ncccn1 [Example 332]" tested_on="UniProtKB O14744" result="6 nM"
molecule="Cc1cc2nc(N)c3cnn(C)c3c2cc1C(=O)N1CCC(=O)N1c1ccc(C(F)(F)F)cn1 [Example 463]" tested_on="UniProtKB O14744" result="1.3 nM"
molecule="Cc1cc2cc(C(=O)N(Cc3ccc(C(F)(F)F)cn3)N(C)c3ncc4c(ccn4C)n3)ccc2nc1N [Compound 127]" tested_on="UniProtKB O14744" result="4.9 nM"
molecule="Cc1cc2cc(C(=O)N(Cc3ccc(C(F)(F)F)cn3)N(C)c3ncccn3)ncc2nc1N [Example 306]" tested_on="UniProtKB O14744" result="4.9 nM"
molecule="C=C1CN(C(=O)c2cc3c(cc2Cl)nc(N)c2cnn(C)c23)N(c2ncccc2F)C1 [Example 433]" tested_on="UniProtKB O14744" result="3.8 nM"
molecule="Cc1cc2cc(C(=O)N(Cc3ccc(C4CC4)cc3F)N(C)c3nccc4nccnc34)ccc2nc1N [Example 167]" tested_on="UniProtKB O14744" result="1.3 nM"
molecule="Cc1cc2cc(C(=O)N(Cc3ccc(Br)cc3F)N(C)c3nccc4nccnc34)ccc2nc1N [Example 72]" tested_on="UniProtKB O14744" result="2.7 nM"
molecule="Cn1ncc2c(N)nc3cc(Cl)c(C(=O)N4CC(F)(F)CN4c4ncc(Cl)cc4F)cc3c21 [Example 460]" tested_on="UniProtKB O14744" result="8.2 nM"
molecule="Cc1cc2cc(C(=O)N(Cc3ccc(C(F)(F)F)cn3)N(C)c3c(F)ccc4nccnc34)ccc2nc1N [Example 125]" tested_on="UniProtKB O14744" result="1.7 nM"
molecule="Cc1cc2nc(N)c3cnn(C)c3c2cc1C(=O)N1CCCN1c1ncccc1F [Example 342]" tested_on="UniProtKB O14744" result="3.8 nM"
molecule="Cc1cc2nc(N)c3cnn(C)c3c2cc1C(=O)N1CC(C)CN1c1ccccc1C(F)(F)F (stereo not shown) [Example 378]" tested_on="UniProtKB O14744" result="6.6 nM"
molecule="Cc1cc2cc(C(=O)N(Cc3ccc(-c4nncs4)cn3)N(C)c3nccc4nccnc34)ccc2nc1N [Example 232]" tested_on="UniProtKB O14744" result="4.3 nM"
molecule="COC1CN(C(=O)c2cc3c(cc2Cl)nc(N)c2cnn(C)c23)N(c2cccc(F)c2F)C1 (stereo not shown) [Example 447]" tested_on="UniProtKB O14744" result="6.8 nM"
molecule="Cc1cc2nc(N)c3ccncc3c2cc1C(=O)N1CC(C)CN1c1ncccc1F (stereo not shown) [Example 502]" tested_on="UniProtKB O14744" result="5.2 nM"
molecule="Cc1cc2cc(C(=O)N(Cc3ccc(-c4cnc5ccccc5c4)cn3)N(C)c3ncccn3)ccc2nc1N [Example 197]" tested_on="UniProtKB O14744" result="1.1 nM"
molecule="Cc1cc2nc(N)c3cnn(C)c3c2cc1C(=O)N1CC2(CCC2)CN1c1ncccc1F [Example 348]" tested_on="UniProtKB O14744" result="7.5 nM"
molecule="Cc1ncc(-c2ccc(CN(C(=O)c3ccc4nc(N)c(C)cc4c3)N(C)c3ncccn3)nc2)cn1 [Example 180]" tested_on="UniProtKB O14744" result="3.2 nM"
